tested on: Plasmodium berghei; experiment: Luciferase/luciferin-expressing antifolate-resistant parasites were used to infect a culture of HepG2 cells that were pre-incubated with compounds. Infected hepatocytes emit light due to the luciferase reaction. Assay results are presented as the percent inhibition of light emission compared to control. […]; format: functional; conditions: sporozoite, HEPG2TOX_HILL_SLOPE 0.0682, HEPG2TOX_R_SQUARED 0.0747, PBLUC_HILL_SLOPE 6.57, PBLUC_R_SQUARED 0.017, read-out: LUCIFERASE INFECTION ASSAY - IC50
pIC50: −log10 of the molar value.
Recorded endpoint: pIC50

Molecular string: Cc1ccc(N(CC(=O)Nc2ccc(Cl)cc2)S(C)(=O)=O)cc1Cl
Recorded endpoint: pIC50
Data value: < 5.07

---

tested on: Plasmodium berghei; assay: Luciferase/luciferin-expressing antifolate-resistant parasites were used to infect a culture of HepG2 cells that were pre-incubated with compounds. Infected hepatocytes emit light due to the luciferase reaction. Assay results are presented as the percent inhibition of light emission compared to control. […]; format: functional; details: sporozoite, HEPG2TOX_HILL_SLOPE 3.87, HEPG2TOX_R_SQUARED 0.807, PBLUC_HILL_SLOPE 2.62, PBLUC_R_SQUARED 0.78, read-out: LUCIFERASE INFECTION ASSAY - IC50
pIC50: −log10 of the molar value.

Molecular string: CCCCNC(=O)NC(=O)CNc1cc(S(=O)(=O)N2CCCCC2)ccc1OCC
pIC50: 5.30

---

tested on: Plasmodium berghei; assay: Luciferase/luciferin-expressing antifolate-resistant parasites were used to infect a culture of HepG2 cells that were pre-incubated with compounds. Infected hepatocytes emit light due to the luciferase reaction. Assay results are presented as the percent inhibition of light emission compared to control. […]; format: functional; settings: sporozoite, HEPG2TOX_HILL_SLOPE 16.1, HEPG2TOX_R_SQUARED 0.56, PBLUC_HILL_SLOPE 1.65, PBLUC_R_SQUARED 0.115, read-out: LUCIFERASE INFECTION ASSAY - IC50
Recorded endpoint: IC50

Molecular string: NC(=S)N/N=C/c1ccc(Cl)cc1
Data value: > 15.4 µM

---

tested on: Plasmodium berghei; assay: Luciferase/luciferin-expressing antifolate-resistant parasites were used to infect a culture of HepG2 cells that were pre-incubated with compounds. Infected hepatocytes emit light due to the luciferase reaction. Assay results are presented as the percent inhibition of light emission compared to control. […]; format: functional; settings: sporozoite, HEPG2TOX_HILL_SLOPE 2.79, HEPG2TOX_R_SQUARED 0.325, PBLUC_HILL_SLOPE 2.85, PBLUC_R_SQUARED 0.319, read-out: LUCIFERASE INFECTION ASSAY - IC50
pIC50: −log10 of the molar value.
Recorded endpoint: pIC50

Molecular string: CCc1nc2oc3ccccc3c(=O)c2c(=O)n1CCc1ccccc1
Tested target: Plasmodium berghei
Data value: 5.33

---

test system: Plasmodium berghei; test: Luciferase/luciferin-expressing antifolate-resistant parasites were used to infect a culture of HepG2 cells that were pre-incubated with compounds. Infected hepatocytes emit light due to the luciferase reaction. Assay results are presented as the percent inhibition of light emission compared to control. […]; format: functional; conditions: sporozoite, HEPG2TOX_HILL_SLOPE 2.51, HEPG2TOX_R_SQUARED 0.938, PBLUC_HILL_SLOPE 16, PBLUC_R_SQUARED 0.0407, read-out: LUCIFERASE INFECTION ASSAY - IC50
pIC50: −log10 of the molar value.
Recorded endpoint: pIC50

Molecular string: Cc1ccc(C(C)C)c(OCc2ccc(C(=O)N/N=C/c3cccc(O)c3O)cc2)c1
Data value: 5.00
